- System: L. decemlineata
- Protocol summary: 5 EC formulations sprayed on glass plates (Table 20)
- Type: in vivo, imagos
- Measurement parameters: 5 EC formulation; dilution 1600x; 48 hours
Entries and their Mortality % values follow.

Molecule: CC1(C)C(C=C(Cl)Cl)C1C(=O)OC(C#N)c1cccc(Oc2ccccc2)c1 (stereo not shown) [cypermethrin]
Unit of measurement: %
Mortality %: 0

Molecule: CC1(C)[C@H](C(=O)O[C@H](C#N)c2cccc(Oc3ccccc3)c2)[C@@H]1C=C(Br)Br
Unit of measurement: %
Mortality %: 7

Molecule: CC1(C)[C@H](C(=O)O[C@H](C#N)c2cccc(Oc3ccccc3)c2)[C@@H]1C=C(Cl)Cl (relative stereo)
Unit of measurement: %
Mortality %: 0

Molecule: CC1(C)C(C=C(Cl)Cl)C1C(=O)OC(C#N)c1cccc(Oc2ccccc2)c1 (stereo not shown) [Ia:Ib = 4:6]
Unit of measurement: %
Mortality %: 0
